# target system: T1, human GIP receptor (human, UniProt P48546 22-466)
# T1 sequence (looked up): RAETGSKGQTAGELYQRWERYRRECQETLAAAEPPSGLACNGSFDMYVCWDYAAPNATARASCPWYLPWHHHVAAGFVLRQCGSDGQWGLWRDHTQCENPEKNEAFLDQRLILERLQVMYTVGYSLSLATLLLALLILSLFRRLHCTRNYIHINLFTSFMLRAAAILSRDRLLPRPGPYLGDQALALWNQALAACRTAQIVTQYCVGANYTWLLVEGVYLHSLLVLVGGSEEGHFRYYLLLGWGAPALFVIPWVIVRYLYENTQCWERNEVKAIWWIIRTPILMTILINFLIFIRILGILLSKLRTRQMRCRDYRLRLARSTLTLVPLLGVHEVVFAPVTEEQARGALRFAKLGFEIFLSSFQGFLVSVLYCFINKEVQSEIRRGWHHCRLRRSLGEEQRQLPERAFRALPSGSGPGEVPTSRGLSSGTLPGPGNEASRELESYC
# assay explanation: cell-based or functional assay
Starred links: 1 amine or outer side, 2 acyl side, 3 side chain; linkers in the order of their positions; H or OH if unused. Non-standard residues stand in square brackets, D forms with d. Groups on a side chain read outwards from the residue. No end group written: not given here. *: point of attachment. C20 diacid = O=C(O)CCCCCCCCCCCCCCCCCCC(=O)*; γGlu = O=C(O)[C@H](CCC(=O)[*:2])N[*:1]; εLys = N[C@@H](CCCCN[*:1])C(=O)[*:2]; Aib = CC(C)(N)C(=O)O
reported endpoint: EC50, CreLuc assay, 100% hP (nM)
The response must be a number in nM with no trailing unit.

binder: YXEGTFTSDYSIXLEAAKQXAFVEWLIKGGPSSGASLRHYYNWLTRQRY (Aib at 2, 13, 20; K28 side chain: C20DA-gGlu-gGlu-gGlu-gGlu-gGlu-gGlu-eLys; C-terminal NH2) [Compound 25]
EC50, CreLuc assay, 100% hP [nM]: 6.97

What value of EC50, CreLuc assay, 100% hP has been recorded for this entry: YXEGTFTSDYSIXLEEEAQXAFVEWLIKGGPSSGASLRHYYNWLTRQRY (Aib at 2, 13, 20; K28 side chain: C20DA-gGlu-gGlu-gGlu-gGlu-gGlu-gGlu-eLys; C-terminal NH2) [Compound 66]
3.06

Moving on to the next binder: YXEGTFTSDYSIXLEKQAQXAFVEWLIKGGPSSGVSIRHYYNWLTRQRY (Aib at 2, 13, 20; K28 side chain: C20DA-gGlu-gGlu-gGlu-gGlu-gGlu-gGlu-eLys; C-terminal NH2) [Compound 27]
1.11

Moving on to the next binder: YXEGTFTSDYSIXLEKQAQXAFVEWLIKGGPSSAVSLRHYYNWLTRQRY (Aib at 2, 13, 20; K28 side chain: C20DA-gGlu-gGlu-gGlu-gGlu-gGlu-gGlu-eLys; C-terminal NH2) [Compound 33]
1.51

Moving on to the next binder: Y[Aib]EGTFTSDYSI[Aib]LEKQAQ[Aib]AFVEWLIK([εLys-γGlu-γGlu-γGlu-γGlu-γGlu-C20 diacid])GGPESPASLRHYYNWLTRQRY-NH2 (also: TFA salt) [Compound 70]
2.62

Moving on to the next binder: YXEGTFTSDYSIXLEKQAQXAFVEWLIKGGPSSYESLRHYYNWLTRQRY (Aib at 2, 13, 20; K28 side chain: C20DA-gGlu-gGlu-gGlu-gGlu-gGlu-gGlu-eLys; C-terminal NH2) [Compound 50]
1.47

Moving on to the next binder: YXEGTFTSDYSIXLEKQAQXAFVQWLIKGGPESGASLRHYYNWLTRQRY (Aib at 2, 13, 20; K28 side chain: C20DA-gGlu-gGlu-gGlu-gGlu-gGlu-OEG-OEG; C-terminal NH2) [Compound 32]
1.15
